# System: human neuroblastoma SH-SY5Y cells
# Format: cell-based
# Assay Conditions: read-out: EC50 cell viability; 48 h exposure, serum-free DMEM/F12
Measured Metric: EC50 (µM)

[
  {
    "Molecule": "CC(C)=CCC/C(C)=C/CC/C(C)=C/CSCCS(=O)(=O)F [Compound L-28]",
    "Measured On": "human neuroblastoma SH-SY5Y cells",
    "Quantitative Result": 24.3
  }
]

====

# Measured On: porcine liver PMPMEase (Sus scrofa, UniProt Q29550)
# Sequence (Q29550 19-566): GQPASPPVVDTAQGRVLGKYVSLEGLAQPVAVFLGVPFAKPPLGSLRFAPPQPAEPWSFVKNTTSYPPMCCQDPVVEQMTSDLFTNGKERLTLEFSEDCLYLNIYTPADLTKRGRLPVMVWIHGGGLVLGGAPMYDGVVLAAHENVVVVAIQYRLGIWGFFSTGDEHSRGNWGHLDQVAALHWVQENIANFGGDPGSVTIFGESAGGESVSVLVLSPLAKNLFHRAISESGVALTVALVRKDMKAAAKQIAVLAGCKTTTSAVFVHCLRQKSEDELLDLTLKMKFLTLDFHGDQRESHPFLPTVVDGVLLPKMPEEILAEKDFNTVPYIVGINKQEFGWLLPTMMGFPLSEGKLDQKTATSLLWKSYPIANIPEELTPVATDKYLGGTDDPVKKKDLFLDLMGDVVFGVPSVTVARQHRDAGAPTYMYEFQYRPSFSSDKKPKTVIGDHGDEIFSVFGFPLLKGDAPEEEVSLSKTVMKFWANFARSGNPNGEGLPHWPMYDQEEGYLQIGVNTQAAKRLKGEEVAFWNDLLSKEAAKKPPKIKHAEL
# Assay Conditions: PMPMEase 82.5 μg, pre-incubation 0-30 min, 100-fold dilution, RD-PNB substrate

[
  {
    "Compound": "CCCCCCCCCCSCCS(=O)(=O)F [Compound L-52, Decanylthioethanesulfonyl fluoride]",
    "Kobs/[I] [M⁻¹ s⁻¹]": 1800
  },
  {
    "Compound": "O=S(=O)(F)CCSCc1ccccc1 [Compound L-51, Benzylthioethanesulfonyl fluoride]",
    "Kobs/[I] [M⁻¹ s⁻¹]": 350
  },
  {
    "Compound": "O=S(=O)(F)CCSc1ccccc1 [Compound L-50, Phenylthioethanesulfonyl fluoride]",
    "Kobs/[I] [M⁻¹ s⁻¹]": 180
  },
  {
    "Compound": "CC(C)=CCC/C(C)=C/CC/C(C)=C/CSCCS(=O)(=O)F",
    "Kobs/[I] [M⁻¹ s⁻¹]": 2000
  }
]
